- System: HCC 2998
- assay_remarks: Growth inhibition of human HCC2998 cells incubated for 48 hrs by sulforhodamine B assay
- Assay type: functional, cell-based
- experimental_setup: HCC 2998, 48 h

chemical_structure: COc1cc(Cl)cc(-c2nn(-c3cccc(NC(=O)Nc4cc(C(F)(F)F)cc(C(F)(F)F)c4)c3)cc2-c2ccncc2)c1
IC50 / nM: 620

====

- System: SNB-75
- assay_remarks: Growth inhibition of human SNB75 cells assessed as cell growth at 0.01 uM incubated for 48 hrs by sulforhodamine B assay relative to control
- Assay type: functional
- experimental_setup: SNB-75, 48 h, read-out: Activity
// boundary case: growth at 0.01 µM equal to 80% maps to criterion not met; strictly smaller maps to criterion met

chemical_structure: O=C(Nc1cccc(-n2cc(-c3ccncc3)c(-c3cc(O)cc(Cl)c3)n2)c1)c1ccc(N2CCOCC2)c(C(F)(F)F)c1
test_target: SNB-75
cat: criterion met
//
chemical_structure: COc1cc(Cl)cc(-c2nn(-c3cccc(NC(=O)c4ccc(N5CCOCC5)c(C(F)(F)F)c4)c3)cc2-c2ccncc2)c1
test_target: SNB-75
cat: criterion met
//
chemical_structure: COc1cc(Cl)cc(-c2nn(-c3cccc(NC(=O)Nc4cccc(C(F)(F)F)c4)c3)cc2-c2ccncc2)c1
test_target: SNB-75
cat: criterion not met
//
chemical_structure: O=C(Nc1cccc(-n2cc(-c3ccncc3)c(-c3cc(O)cc(Cl)c3)n2)c1)c1cc(C(F)(F)F)cc(C(F)(F)F)c1
test_target: SNB-75
cat: criterion met
//
chemical_structure: O=C(Nc1cccc(-n2cc(-c3ccncc3)c(-c3cc(O)cc(Cl)c3)n2)c1)Nc1ccc(Cl)c(Cl)c1
test_target: SNB-75
cat: criterion not met
//
chemical_structure: COc1cc(Cl)cc(-c2nn(-c3cccc(NC(=O)c4cccc(C(F)(F)F)c4)c3)cc2-c2ccncc2)c1
test_target: SNB-75
cat: criterion not met

====

- System: UO-31
- assay_remarks: Growth inhibition of human UO31 cells incubated for 48 hrs by sulforhodamine B assay
- Assay type: functional, cell-based
- experimental_setup: UO-31, 48 h
Quick reference for IC50 among some compounds
parameter: IC50 (nM)

chemical_structure: O=C(Nc1cccc(-n2cc(-c3ccncc3)c(-c3cc(O)cc(Cl)c3)n2)c1)c1ccc(N2CCOCC2)c(C(F)(F)F)c1
parameter: IC50
measured_number: 1410

chemical_structure: COc1cc(Cl)cc(-c2nn(-c3cccc(NC(=O)Nc4ccc(Cl)c(Cl)c4)c3)cc2-c2ccncc2)c1
parameter: IC50
measured_number: 1890

chemical_structure: O=C(Nc1cccc(-n2cc(-c3ccncc3)c(-c3cc(O)cc(Cl)c3)n2)c1)Nc1ccc(Cl)c(C(F)(F)F)c1
parameter: IC50
measured_number: 2100

chemical_structure: COc1cc(Cl)cc(-c2nn(-c3cccc(NC(=O)c4cccc(C(F)(F)F)c4)c3)cc2-c2ccncc2)c1
parameter: IC50
measured_number: 2710

====

- Test system: SN12C
- assay_remarks: Growth inhibition of human SN12C cells assessed as cell growth at 10 uM incubated for 48 hrs by sulforhodamine B assay relative to control
- Type: functional
- experimental_setup: read-out: Activity
Quick reference for growth at 10 µM among some compounds
parameter: growth at 10 µM

chemical_structure: COc1cc(Cl)cc(-c2nn(-c3cccc(NC(=O)Nc4ccc(Cl)c(C(F)(F)F)c4)c3)cc2-c2ccncc2)c1
result: 13.8%
--
chemical_structure: COc1cc(Cl)cc(-c2nn(-c3cccc(NC(=O)Nc4ccc(Cl)c(Cl)c4)c3)cc2-c2ccncc2)c1
result: 15.5%
--
chemical_structure: COc1cc(Cl)cc(-c2nn(-c3cccc(NC(=O)c4cc(C(F)(F)F)cc(C(F)(F)F)c4)c3)cc2-c2ccncc2)c1
result: 69.8%
--
chemical_structure: O=C(Nc1cccc(-n2cc(-c3ccncc3)c(-c3cc(O)cc(Cl)c3)n2)c1)c1ccc(N2CCOCC2)c(C(F)(F)F)c1
result: 46.4%
--
chemical_structure: COc1cc(Cl)cc(-c2nn(-c3cccc(NC(=O)Nc4cccc(C(F)(F)F)c4)c3)cc2-c2ccncc2)c1
result: 13.9%

====

- Tested on: U-251
- assay_remarks: Growth inhibition of human U251 cells assessed as cell growth at 10 uM incubated for 48 hrs by sulforhodamine B assay relative to control
- Format: functional
- experimental_setup: U-251, 48 h, read-out: Activity

chemical_structure: COc1cc(Cl)cc(-c2nn(-c3cccc(NC(=O)Nc4ccc(Cl)c(C(F)(F)F)c4)c3)cc2-c2ccncc2)c1
measure_unit: %
growth at 10 µM: -48.3
//
chemical_structure: O=C(Nc1cccc(-n2cc(-c3ccncc3)c(-c3cc(O)cc(Cl)c3)n2)c1)Nc1ccc(Cl)c(Cl)c1
measure_unit: %
growth at 10 µM: -56.5
//
chemical_structure: COc1cc(Cl)cc(-c2nn(-c3cccc(NC(=O)c4cccc(C(F)(F)F)c4)c3)cc2-c2ccncc2)c1
measure_unit: %
growth at 10 µM: 49.2
//
chemical_structure: O=C(Nc1cccc(-n2cc(-c3ccncc3)c(-c3cc(O)cc(Cl)c3)n2)c1)c1cc(C(F)(F)F)cc(C(F)(F)F)c1
measure_unit: %
growth at 10 µM: 37.2

====

- Tested on: U-251
- assay_remarks: Growth inhibition of human U251 cells assessed as cell growth at 0.1 uM incubated for 48 hrs by sulforhodamine B assay relative to control
- Type: functional
- experimental_setup: U-251, 48 h, read-out: Activity

chemical_structure: O=C(Nc1cccc(-n2cc(-c3ccncc3)c(-c3cc(O)cc(Cl)c3)n2)c1)Nc1ccc(Cl)c(C(F)(F)F)c1
growth at 0.1 µM, %: 91
--
chemical_structure: O=C(Nc1cccc(-n2cc(-c3ccncc3)c(-c3cc(O)cc(Cl)c3)n2)c1)c1ccc(N2CCOCC2)c(C(F)(F)F)c1
growth at 0.1 µM, %: 96
--
chemical_structure: O=C(Nc1cccc(-n2cc(-c3ccncc3)c(-c3cc(O)cc(Cl)c3)n2)c1)c1cc(C(F)(F)F)cc(C(F)(F)F)c1
growth at 0.1 µM, %: 93
--
chemical_structure: COc1cc(Cl)cc(-c2nn(-c3cccc(NC(=O)Nc4ccc(Cl)c(Cl)c4)c3)cc2-c2ccncc2)c1
growth at 0.1 µM, %: 92

====

Quick reference for GI50 among some compounds
- Tested on: COLO 205
- assay_remarks: Growth inhibition of human COLO205 cells incubated for 48 hrs by sulforhodamine B assay
- Assay type: functional, cell-based
- experimental_setup: COLO 205, 48 h, read-out: pGI50 (converted)

chemical_structure: COc1cc(Cl)cc(-c2nn(-c3cccc(NC(=O)Nc4cccc(C(F)(F)F)c4)c3)cc2-c2ccncc2)c1
GI50 [µM]: 1.51
//
chemical_structure: COc1cc(Cl)cc(-c2nn(-c3cccc(NC(=O)c4cccc(C(F)(F)F)c4)c3)cc2-c2ccncc2)c1
GI50 [µM]: 33.9
//
chemical_structure: O=C(Nc1cccc(-n2cc(-c3ccncc3)c(-c3cc(O)cc(Cl)c3)n2)c1)c1cc(C(F)(F)F)cc(C(F)(F)F)c1
GI50 [µM]: 2.34
//
chemical_structure: O=C(Nc1cccc(-n2cc(-c3ccncc3)c(-c3cc(O)cc(Cl)c3)n2)c1)c1ccc(N2CCOCC2)c(C(F)(F)F)c1
GI50 [µM]: 17.4

====

- System: OVCAR-4
- assay_remarks: Growth inhibition of human OVCAR4 cells assessed as cell growth at 100 uM incubated for 48 hrs by sulforhodamine B assay relative to control
- Type: functional
- experimental_setup: OVCAR-4, 48 h, read-out: Activity
Quick reference for growth at 100 µM among some molecules

chemical_structure: O=C(Nc1cccc(-n2cc(-c3ccncc3)c(-c3cc(O)cc(Cl)c3)n2)c1)Nc1ccc(Cl)c(Cl)c1
test_target: OVCAR-4
measure_unit: %
growth at 100 µM: 9

chemical_structure: O=C(Nc1cccc(-n2cc(-c3ccncc3)c(-c3cc(O)cc(Cl)c3)n2)c1)Nc1ccc(Cl)c(C(F)(F)F)c1
test_target: OVCAR-4
measure_unit: %
growth at 100 µM: -10

chemical_structure: O=C(Nc1cccc(-n2cc(-c3ccncc3)c(-c3cc(O)cc(Cl)c3)n2)c1)c1ccc(N2CCOCC2)c(C(F)(F)F)c1
test_target: OVCAR-4
measure_unit: %
growth at 100 µM: 57

chemical_structure: COc1cc(Cl)cc(-c2nn(-c3cccc(NC(=O)Nc4ccc(Cl)c(C(F)(F)F)c4)c3)cc2-c2ccncc2)c1
test_target: OVCAR-4
measure_unit: %
growth at 100 µM: -16

chemical_structure: COc1cc(Cl)cc(-c2nn(-c3cccc(NC(=O)c4ccc(N5CCOCC5)c(C(F)(F)F)c4)c3)cc2-c2ccncc2)c1
test_target: OVCAR-4
measure_unit: %
growth at 100 µM: 38

====

- System: SK-MEL-5
- assay_remarks: Growth inhibition of human SK-MEL-5 cells incubated for 48 hrs by sulforhodamine B assay
- Type: functional, cell-based
- experimental_setup: SK-MEL-5, 48 h, read-out: TGI
Quick reference for TGI among some compounds
parameter: TGI

chemical_structure: COc1cc(Cl)cc(-c2nn(-c3cccc(NC(=O)c4cccc(C(F)(F)F)c4)c3)cc2-c2ccncc2)c1
parameter: TGI
result: > 100 µM
//
chemical_structure: COc1cc(Cl)cc(-c2nn(-c3cccc(NC(=O)Nc4ccc(Cl)c(C(F)(F)F)c4)c3)cc2-c2ccncc2)c1
parameter: TGI
result: 29.3 µM
//
chemical_structure: O=C(Nc1cccc(-n2cc(-c3ccncc3)c(-c3cc(O)cc(Cl)c3)n2)c1)c1cc(C(F)(F)F)cc(C(F)(F)F)c1
parameter: TGI
result: 86.7 µM
//
chemical_structure: COc1cc(Cl)cc(-c2nn(-c3cccc(NC(=O)Nc4cccc(C(F)(F)F)c4)c3)cc2-c2ccncc2)c1
parameter: TGI
result: 25.4 µM
//
chemical_structure: O=C(Nc1cccc(-n2cc(-c3ccncc3)c(-c3cc(O)cc(Cl)c3)n2)c1)c1ccc(N2CCOCC2)c(C(F)(F)F)c1
parameter: TGI
result: 84.9 µM
